Assay: Inhibition of N-terminal His-tagged Escherichia coli beta-glucuronidase expressed in Escherichia coli BL21 (DE3) using pNPG as substrate preincubated for 30 mins followed by substrate addition measured after 1 hr
IC50 strictly under 200 nM means 1; at 200 nM or over means -1.

smi	class assignment
Nc1n[nH]c2c1c(Nc1cccc(Cl)c1)nc1ccccc12	-1
CC(=O)c1ccc(Nc2nc3ccccc3c3[nH]nc(N)c23)cc1	1
Cc1cccc(Nc2nc3ccccc3c3[nH]nc(N)c23)c1	-1
Nc1ccc(Nc2nc3ccccc3c3[nH]nc(N)c23)cc1	-1
Cc1ccccc1Nc1nc2ccccc2c2[nH]nc(N)c12	-1
Nc1n[nH]c2c1c(Nc1ccccc1O)nc1ccccc12	-1
Cc1ccc(Nc2nc3ccc(Br)cc3c3[nH]nc(N)c23)cc1	1
Nc1n[nH]c2c1c(Nc1ccc(Cl)cc1)nc1ccccc12	1
Nc1n[nH]c2c1c(Nc1ccc(Cl)cc1)nc1cc(F)ccc12	1
Nc1n[nH]c2c1c(Nc1cccc(O)c1)nc1ccccc12	-1
Nc1n[nH]c2c1c(Nc1ccc(C(=O)O)cc1)nc1ccccc12	1
Nc1n[nH]c2c1c(Nc1ccc(O)cc1)nc1ccccc12	-1
Nc1n[nH]c2c1c(Nc1ccc(F)cc1)nc1ccccc12	1
Nc1n[nH]c2c1c(Nc1ccc(C(F)(F)F)cc1)nc1ccccc12	1
Cc1ccc(Nc2nc3ccc(Cl)cc3c3[nH]nc(N)c23)cc1	1
Cc1ccc(Nc2nc3cc(F)ccc3c3[nH]nc(N)c23)cc1	1
Cc1ccc(Nc2nc3c(C)cccc3c3[nH]nc(N)c23)cc1	1
Nc1n[nH]c2c1c(Nc1ccc([N+](=O)[O-])cc1)nc1ccccc12	-1
Nc1n[nH]c2c1c(Nc1ccc(Cl)cc1)nc1ccc(Br)cc12	1
CCOc1ccc(NC(=S)N(CCO)Cc2cc3cc(C)cc(C)c3[nH]c2=O)cc1	-1
Cc1ccc(Nc2nc3ccccc3c3[nH]nc(N)c23)cc1	1
Nc1n[nH]c2c1c(Nc1ccc(Cl)cc1)nc1ccc(Cl)cc12	1
Nc1n[nH]c2c1c(Nc1ccccc1Cl)nc1ccccc12	-1
Cc1cccc2c1nc(Nc1ccc(Cl)cc1)c1c(N)n[nH]c12	-1
O=C(O)[C@@H](O)[C@H]1OC(=O)[C@H](O)[C@H]1O	-1

The reported measurements were obtained from ChEMBL document CHEMBL4024760.
